Substrate: [H][C@]12C[C@]([H])(OO1)[C@H](C/C=C\CCCC(=O)O)[C@H]2/C=C/[C@@H](O)CCCCC
Assay: purified protein
Conditions: PGD2 synthase reaction; 2 mM GSH fixed (saturating); PGH2 0.08-40 μM
MEASURED_ATTRIBUTE: kcat/Km (M⁻¹ s⁻¹)

- PROTEIN: "rCsGST-μ1 (Clonorchis sinensis) (protein) MAPVLGYWKIRGLAQPIRLLLEYVGDSYEEHSYGRCDGEKWQNDKHNLGLELPNLPYYKDGNFSLTQSLAILRYIADKHNMIGNTPVERAKISMIEGGLVDLRAGVSRIAYQETFVCIVSTFCLSHTSQEQLKVPYLQQLPSTLRMWSQFLGNNSYLHGSTPTHLDFMFYEALDVIRYLDPTSVEAFPNLMQFIHRIEALPNIKAFMESDRFIKWPLNGWSAYFGGGDAPPK"
  UNIT_STRING: "M⁻¹ s⁻¹"
  VALUE: "2.6e+06"
